Tested on: Rattus norvegicus
Experiment: Antiinflammatory activity in Wistar rat assessed as inhibition of carrageenan-induced paw edema at 10 mg/kg, po administered 1 hr before carrageenan challenge and measured 4 hrs post carrageenan challenge relative to untreated control
Format: functional
Outcome label depends on inhibition in vivo at 10 mg/kg relative to 60%: at/above gives yes (1), below gives no (0).

Answered cases to consult:
1) NC(=O)c1c(-c2ccccc2)cc(C(F)(F)F)c2c1N=C(c1ccco1)N1CCN=C21	no (0)
2) NC(=O)c1c(-c2ccccc2)cc(C(F)(F)F)c2c1N=C(c1cccs1)N1CCN=C21	no (0)
3) NC(=O)c1c(C(F)(F)F)cc(-c2ccccc2)c2c1N=C(c1ccc(O)cc1)N1CCN=C21	no (0)
4) NC(=O)c1c(C(F)(F)F)cc(-c2ccccc2)c2c1N=C(c1ccco1)N1CCN=C21	no (0)
5) NC(=O)c1c(C(F)(F)F)cc(-c2ccccc2)c2c1N=C(c1cccs1)N1CCN=C21	no (0)

Attention now shifts to the item below.
Say whether `COc1ccc2c(c1)c(CC(=O)O)c(C)n2C(=O)c1ccc(Cl)cc1` shows inhibition in vivo at 10 mg/kg of 60% or more.
yes (1)
